# System tested: human MC3R (human, UniProt P41968 1-323)
# Sequence (P41968 whole entry): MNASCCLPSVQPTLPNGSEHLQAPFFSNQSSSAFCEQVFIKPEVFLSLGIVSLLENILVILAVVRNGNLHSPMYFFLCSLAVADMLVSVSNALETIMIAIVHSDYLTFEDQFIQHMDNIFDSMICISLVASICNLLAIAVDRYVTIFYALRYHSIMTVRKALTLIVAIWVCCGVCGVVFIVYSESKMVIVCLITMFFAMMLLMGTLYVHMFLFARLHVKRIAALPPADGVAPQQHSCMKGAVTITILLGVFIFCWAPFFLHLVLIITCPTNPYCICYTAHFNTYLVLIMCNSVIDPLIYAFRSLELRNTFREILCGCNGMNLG
# Test details: cell-based or functional assay
Non-standard residues stand in square brackets, D forms with d. Phe(4-Br) = N[C@@H](Cc1ccc(Br)cc1)C(=O)O; Nle = CCCC[C@H](N)C(=O)O; dNMeA = CN[C@H](C)C(=O)O
Reported metric: MC3R selectivity (relative to MC4R)

[[record]]
binder = "H-YV[Nle]AHFR[dW]D-NH2 (SMILES CCCC[C@H](NC(=O)[C@@H](NC(=O)[C@@H](N)Cc1ccc(O)cc1)C(C)C)C(=O)N[C@@H](C)C(=O)N[C@@H](Cc1c[nH]cn1)C(=O)N[C@@H](Cc1ccccc1)C(=O)N[C@@H](CCCNC(=N)N)C(=O)N[C@H](Cc1c[nH]c2ccccc12)C(=O)N[C@@H](CC(=O)O)C(N)=O) [CTX-1129]"
data_value = 7.5

[[record]]
binder = "Ac-V[Nle][dA]HFR[dW]DRFG-OH (SMILES CCCC[C@H](NC(=O)[C@@H](NC(C)=O)C(C)C)C(=O)N[C@H](C)C(=O)N[C@@H](Cc1c[nH]cn1)C(=O)N[C@@H](Cc1ccccc1)C(=O)N[C@@H](CCCNC(=N)N)C(=O)N[C@H](Cc1c[nH]c2ccccc12)C(=O)N[C@@H](CC(=O)O)C(=O)N[C@@H](CCCNC(=N)N)C(=O)N[C@@H](Cc1ccccc1)C(=O)NCC(=O)O) [CTX-1121]"
data_value = 2120

[[record]]
binder = "Ac-SGH[dF]R[dW]D-NH2 (SMILES CC(=O)N[C@@H](CO)C(=O)NCC(=O)N[C@@H](Cc1c[nH]cn1)C(=O)N[C@H](Cc1ccccc1)C(=O)N[C@@H](CCCNC(=N)N)C(=O)N[C@H](Cc1c[nH]c2ccccc12)C(=O)N[C@@H](CC(=O)O)C(N)=O) [CTX-1111]"
data_value = 0.1

[[record]]
binder = "YVXAHFRWDRFG (Nle at 3; D-Trp at 8) [CTX-1133]"
data_value = 7.4

[[record]]
binder = "Ac-[Nle][dA]H[Phe(4-Br)]R[dW]DRFG-OH (SMILES CCCC[C@H](NC(C)=O)C(=O)N[C@H](C)C(=O)N[C@@H](Cc1c[nH]cn1)C(=O)N[C@@H](Cc1ccc(Br)cc1)C(=O)N[C@@H](CCCNC(=N)N)C(=O)N[C@H](Cc1c[nH]c2ccccc12)C(=O)N[C@@H](CC(=O)O)C(=O)N[C@@H](CCCNC(=N)N)C(=O)N[C@@H](Cc1ccccc1)C(=O)NCC(=O)O) [CTX-1165]"
data_value = 5600

[[record]]
binder = "Ac-[Nle][dNMeA]HFR[dW]DRFG-OH (SMILES CCCC[C@H](NC(C)=O)C(=O)N(C)[C@H](C)C(=O)N[C@@H](Cc1c[nH]cn1)C(=O)N[C@@H](Cc1ccccc1)C(=O)N[C@@H](CCCNC(=N)N)C(=O)N[C@H](Cc1c[nH]c2ccccc12)C(=O)N[C@@H](CC(=O)O)C(=O)N[C@@H](CCCNC(=N)N)C(=O)N[C@@H](Cc1ccccc1)C(=O)NCC(=O)O) [CTX-1183]"
data_value = 515

